target: EfpA (Mycolicibacterium smegmatis); construct: native efflux pump in intact M. smegmatis cells; ethidium bromide efflux read-out; test: ethidium bromide efflux (fluorescence) in M. smegmatis cells
Assay endpoint: IC50
Answer with the number, then the unit.

Lab note: CC(C)=C[C@@H]1[C@@H](C(=O)Nc2cccc(Br)n2)C1(C)C [(R,R)-trans isomer of BRD-8000.2] gave IC50 of 500 µM

Memo: CC(C)=C[C@H]1[C@H](C(=O)Nc2cccc(Br)n2)C1(C)C [BRD-8000.2] , reported IC50: 15 µM

The recorded IC50 for CC(C)=CC1C(C(=O)Nc2ccc(Br)cn2)C1(C)C (mixture of isomers) [BRD-8000] is 38 µM

Data credit: paper doi:10.1101/396440v2
